System: HL-60
assay-procedure: NCI tumour cell line growth inhibition, 48 h
The source made the active and inactive calls. Cut-off read from the data, not from the text of the source: active = GI50 up to about 1.1 µM and inactive = higher.
measured-quantity: GI50

Worked examples, 5 compounds total:
compound	GI50
Cc1ccccc1NC(=O)c1ccc([N+](=O)[O-])cc1	46.8 µM (inactive)
O=C(Nc1ccc([N+](=O)[O-])cc1C(=O)O)c1ccc([N+](=O)[O-])cc1	17.1 µM (inactive)
CC[C@@]1(OC(=O)C(N)CCC(=O)O)C(=O)OCc2c1cc1n(c2=O)Cc2cc3ccccc3nc2-1 (stereo partly specified)	0.0208 µM (active)
CN(Cc1c[n+]([O-])c2nc(N)nc(N)c2n1)c1ccc(C(=O)NC23CC4CC(CC(C4)C2)C3)cc1	31 µM (inactive)
O=c1[nH]c(=O)n(C2CC(O)C(CO)O2)cc1I (stereo unspecified)	> 81.3 µM (inactive)

// input: 2 compounds below; output: GI50 for each
1. CCCCCNC(=O)CCCCCCCCCCCNC(=O)CCCCCCCCCCN1C=CC(=CC=C2C=CC(=O)C=C2)C=C1
2. Cc1ccc(-n2nnc(C(N)=O)c2O)cc1

A:
["2.51 µM (inactive)", "> 100 µM (inactive)"]

// input: 8 compounds below; output: GI50 for each
1. O=C1C=CC2(O[C@H](c3ccccc3)[C@@H](c3ccccc3)O2)[C@H](Sc2ccccc2O)C1
2. [N-]=[N+]=NC1(Cc2ccccc2)C(=O)Nc2ccccc2C1=O (stereo unspecified)
3. Clc1ccc(OCC2NC3C=CC32)cn1 (stereo unspecified)
4. C1CCN2CC3CCCN4CCCC(C2C1)C34 (stereo unspecified)
5. CCOC(=O)C(Cc1ccc(OC(=O)OC(C)(C)C)cc1)NC(=O)OC(C)(C)C (stereo unspecified)
6. CC(=O)C1C(=O)C(=O)N(c2ccc([N+](=O)[O-])cc2[N+](=O)[O-])C1=O (stereo unspecified)
7. CO/N=C(/C(=O)N(C(=O)/C(=N/OC)c1csc(NC(c2ccccc2)(c2ccccc2)c2ccccc2)n1)n1cnn(CC(=O)OC(C)(C)C)c1=O)c1csc(NC(c2ccccc2)(c2ccccc2)c2ccccc2)n1
8. OC(CC1SCCCS1)c1ccccc1 (stereo unspecified)

A:
1: 0.264 µM (active); 2: > 100 µM (inactive); 3: > 100 µM (inactive); 4: > 100 µM (inactive); 5: 28.2 µM (inactive); 6: > 100 µM (inactive); 7: > 10 µM (inactive); 8: > 100 µM (inactive)

// input: 7 compounds below; output: GI50 for each
1. Cc1nc2sccn2c1C(=O)NC(=O)Nc1ccc(Cl)cc1
2. CC(=O)C(=NNc1ccc(-n2c(C)nc3ccc(Br)cc3c2=O)cc1)C(C)=O
3. COC(=O)C1=C(OC(=O)/C(=C/c2ccc(Cl)cc2)c2ccc(Cl)cc2)C(C(=O)OC)[C@@]2(O)[C@@H](C(=O)OC)[C@H](C)C[C@@H]1[C@@H]2C(=O)OC (stereo partly specified)
4. CNc1cccnc1/C=N/N=C(/N)S
5. O[C@H]1[C@H](O)[C@@H](O)[C@@]2(O)C[C@@H](O)[C@@H]1N2
6. COc1ccc2nc3ccc(OC)cc3c([S+]([O-])Cc3ccccc3)c2c1 (stereo unspecified)
7. COC(=O)C1(C(=O)OC)CC2=C(S(=O)(=O)c3ccccc3)C[C@H](C#N)[C@H]2C1

A:
["> 100 µM (inactive)", "> 100 µM (inactive)", "> 100 µM (inactive)", "0.564 µM (active)", "> 100 µM (inactive)", "3.84 µM (inactive)", "> 100 µM (inactive)"]

Hey, just so you know, these numbers are from ChEMBL document CHEMBL1201862.
